target under test: TYK2 (Homo sapiens, UniProt P29597)
Sequence (P29597 whole entry): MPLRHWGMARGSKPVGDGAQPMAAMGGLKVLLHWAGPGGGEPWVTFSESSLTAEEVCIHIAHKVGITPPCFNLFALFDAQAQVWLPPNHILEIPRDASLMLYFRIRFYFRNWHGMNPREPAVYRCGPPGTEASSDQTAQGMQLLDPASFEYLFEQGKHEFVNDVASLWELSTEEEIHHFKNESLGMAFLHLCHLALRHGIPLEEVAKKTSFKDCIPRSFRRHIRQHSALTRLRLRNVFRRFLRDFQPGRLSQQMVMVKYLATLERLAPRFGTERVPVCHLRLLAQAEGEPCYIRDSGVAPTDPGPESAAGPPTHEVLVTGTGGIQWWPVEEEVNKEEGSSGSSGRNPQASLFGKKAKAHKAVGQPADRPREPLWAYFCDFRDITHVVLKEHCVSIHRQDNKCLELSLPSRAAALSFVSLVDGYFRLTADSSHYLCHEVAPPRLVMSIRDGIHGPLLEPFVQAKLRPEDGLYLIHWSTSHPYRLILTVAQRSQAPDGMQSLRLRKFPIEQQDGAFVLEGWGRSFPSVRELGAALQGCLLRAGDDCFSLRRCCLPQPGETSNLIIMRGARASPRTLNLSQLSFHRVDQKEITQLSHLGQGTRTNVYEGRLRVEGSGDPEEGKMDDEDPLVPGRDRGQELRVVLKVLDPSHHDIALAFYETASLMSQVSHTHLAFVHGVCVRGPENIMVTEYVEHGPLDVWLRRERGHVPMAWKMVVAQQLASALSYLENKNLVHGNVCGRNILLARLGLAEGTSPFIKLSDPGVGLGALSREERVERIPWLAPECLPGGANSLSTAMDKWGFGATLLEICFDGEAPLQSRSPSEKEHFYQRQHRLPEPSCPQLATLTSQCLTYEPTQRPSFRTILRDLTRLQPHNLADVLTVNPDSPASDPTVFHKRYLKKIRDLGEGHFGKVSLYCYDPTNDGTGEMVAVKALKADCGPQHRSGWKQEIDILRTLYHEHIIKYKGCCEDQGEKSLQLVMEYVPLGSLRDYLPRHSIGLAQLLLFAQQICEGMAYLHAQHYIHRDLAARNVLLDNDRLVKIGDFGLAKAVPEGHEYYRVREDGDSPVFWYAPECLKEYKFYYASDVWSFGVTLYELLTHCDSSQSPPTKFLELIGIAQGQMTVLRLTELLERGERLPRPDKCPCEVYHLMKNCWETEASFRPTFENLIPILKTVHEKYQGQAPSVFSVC
test name: TYK2 degradation MSD assay in EBV-B cells
Assay type: cell-based
Design: endogenous in cells; host or cells: EBV-B cells
test conditions: 4 to 24 hours incubation, read-out: TYK2 MSD DC50 rating in EBV-B
# DC50 listing for each entry below
assay readout: DC50

>>> reported("CNc1cc(Nc2cccn(-c3ccc(C(=O)N4CCC(CN5CCCN(c6ccc(-c7ccc8c(c7)n(C)c(=O)n8C7CCC(=O)NC7=O)cn6)CC5)CC4)cn3)c2=O)nn2c(C(=O)N[C@@H]3C[C@@H]3F)cnc12 (stereo partly drawn) [Example K422]")
"> 100 nM"
>>> reported("CNc1cc(Nc2cccnc2OC2CCN(CCN3CCN(c4ccc5c(c4)n(C)c(=O)n5C4CCC(=O)NC4=O)CC3)CC2)nn2c(C(=O)N[C@@H]3C[C@@H]3F)cnc12 (stereo partly drawn) [Example K531]")
"> 100 nM"
>>> reported("CNc1cc(Nc2cccc(-c3ccc(CN4CCN(c5ccc(-c6ccc7c(c6)n(C)c(=O)n7C6CCC(=O)NC6=O)cc5)CC4)cn3)c2)nn2c(C(=O)N[C@@H]3C[C@@H]3F)cnc12 (stereo partly drawn) [Example K499]")
"> 100 nM"
>>> reported("CNc1cc(Nc2cccc(-c3ccc(CN4CCN(c5ccc(-c6cccc7c6n(C)c(=O)n7C6CCC(=O)NC6=O)cc5)CC4)cn3)c2OC)nn2c(C(=O)N[C@@H]3C[C@@H]3F)cnc12 (stereo partly drawn) [Example K488]")
"> 100 nM"
>>> reported("CNc1cc(N2CCc3c(-c4cc(N5CCN(CC6CCN(c7cccc8c7n(C)c(=O)n8C7CCC(=O)NC7=O)CC6)CC5)ccn4)cccc32)nn2c(C(=O)NC3CC3F)cnc12 (stereo not drawn) [Example K656]")
"> 100 nM"
>>> reported("CNc1cc(Nc2cccc(-c3ccc(CN4CCN(c5ccc(-c6ccc7c(c6)n(C)c(=O)n7C6CCC(=O)NC6=O)cc5)CC4)cn3)c2)nc2c(C(=O)N[C@@H]3C[C@@H]3F)cnn12 (stereo partly drawn) [Example K508]")
"1 to 10 nM"
>>> reported("CNC(=O)c1cnc(Nc2ccc(CN3CCCC4(C3)CN(c3ncc(C#Cc5ccc6c(c5)n(C)c(=O)n6C5CCC(=O)NC5=O)cn3)C4)cn2)cc1Nc1cccc(-c2ncc(F)cn2)c1OC (stereo not drawn) [Example K145]")
"1 to 10 nM"
>>> reported("CNc1cc(Nc2cccc(CN3CCC(OCC#Cc4cccc5c4n(C)c(=O)n5C4CCC(=O)NC4=O)CC3)c2)nn2c(C(=O)NC3CC3)cnc12 (stereo not drawn) [Example K595]")
"> 100 nM"
>>> reported("CNc1cc(Nc2cccc(CN3CCN(CCc4ccc5c(c4)n(C)c(=O)n5C4CCC(=O)NC4=O)CC3)c2)nn2c(C(=O)NC3CC3)cnc12 (stereo not drawn) [Example K612]")
"> 100 nM"
>>> reported("CNC(=O)c1cnc(Nc2ccc(C(=O)NCCCCc3ccc4c(c3)n(C)c(=O)n4C3CCC(=O)NC3=O)cn2)cc1Nc1ccccc1OC (stereo not drawn) [Example K706]")
"> 100 nM"
>>> reported("CNc1cc(N2CCc3c(-c4cc(N5CCN(c6ccc7c(c6)n(C)c(=O)n7C6CCC(=O)NC6=O)CC5)ccn4)cccc32)nn2c(C(=O)C[C@@H]3C[C@@H]3F)cnc12 (stereo partly drawn) [Example K652]")
"> 100 nM"
>>> reported("CNC(=O)c1cnc(Nc2ccc(CN3CC(N(C)c4cccc5c4n(C)c(=O)n5C4CCC(=O)NC4=O)C3)cn2)cc1Nc1cccc(-c2ncc(F)cn2)c1OC (stereo not drawn) [Example K161]")
"1 to 10 nM"
>>> reported("CNC(=O)c1cnc(NC(=O)NCCCCCCCc2cccc3c2n(C)c(=O)n3C2CCC(=O)NC2=O)cc1Nc1cccc(-c2ncc(F)cn2)c1OC (stereo not drawn) [Example K185]")
"> 100 nM"
>>> reported("Cn1c(=O)n(C2CCC(=O)NC2=O)c2ccc(CCCCNc3cc(Nc4cccn(-c5ccccn5)c4=O)nn4c(C(=O)N[C@@H]5C[C@@H]5F)cnc34)cc21 (stereo partly drawn) [Example K204]")
"> 100 nM"
>>> reported("CNc1cc(Nc2cccc(CN3CCC(CN4CCN(c5ccc6c(c5)n(C)c(=O)n6C5CCC(=O)NC5=O)CC4)CC3)c2)nn2c(C(=O)N[C@@H]3C[C@@H]3F)cnc12 (stereo partly drawn) [Example K490]")
"> 100 nM"
>>> reported("CNc1cc(N2CCc3c(CN4CCC(CN5CCN(c6ccc7c(c6)n(C)c(=O)n7C6CCC(=O)NC6=O)CC5)CC4)cccc32)nn2c(C(=O)N[C@@H]3C[C@@H]3F)cnc12 (stereo partly drawn) [Example K634]")
"> 100 nM"
>>> reported("CNc1cc(Nc2ccccc2C(=O)NCCCCCCCCc2cccc3c2n(C)c(=O)n3C2CCC(=O)NC2=O)nn2c(C(=O)N[C@@H]3C[C@@H]3F)cnc12 (stereo partly drawn) [Example K258]")
"> 100 nM"
>>> reported("CNc1cc(Nc2cccn(-c3ccc(C(=O)C4CCC(C5CCN(c6ccc7c(c6)n(C)c(=O)n7C6CCC(=O)NC6=O)C5)CN4)cn3)c2=O)nn2c(C(=O)N[C@@H]3C[C@@H]3F)cnc12 (stereo partly drawn) [Example K424]")
"> 100 nM"
>>> reported("CNc1cc(Nc2cnn(CC3CCN(CC4CCN(c5ccc6c(c5)n(C)c(=O)n6C5CCC(=O)NC5=O)CC4)CC3)c2)nn2c(C(=O)N[C@@H]3C[C@@H]3F)cnc12 (mixture of isomers) [Example K548]")
"> 100 nM"
>>> reported("Cn1c(=O)n(C2CCC(=O)NC2=O)c2ccc(-c3ccc(CCCNc4cc(Nc5cccn(-c6ccccn6)c5=O)nn5c(C(=O)N[C@@H]6C[C@@H]6F)cnc45)nc3)cc21 (stereo partly drawn) [Example K365]")
"> 100 nM"
>>> reported("CNC(=O)c1cnc(Nc2ccc(CN3CCC(c4cccc5c4n(C)c(=O)n5C4CCC(=O)NC4=O)C3)cn2)cc1Nc1cccc(-c2ncc(F)cn2)c1OC (stereo not drawn) [Example K165]")
"1 to 10 nM"

====

target under test: TYK2 (Homo sapiens)
test name: TYK2 degradation MSD assay in human PBMC cells
Format: cell-based
Design: endogenous in cells; host or cells: human PBMC
test conditions: 4 to 24 hours incubation, read-out: TYK2 MSD DC50 rating in human PBMC
assay readout: DC50

>>> reported("CNc1cc(Nc2cccc(-c3ccc(CN4CCN(c5ccc(-c6ccc7c(c6)n(C)c(=O)n7C6CCC(=O)NC6=O)cc5)CC4)cn3)c2)nn2c(-c3cn(C(C)C)nn3)cnc12 (centres unmarked)")
"> 100 nM"
>>> reported("CNc1cc(Nc2cccc(CN3CCN(C(=O)CCc4ccc(-c5ccc6c(c5)n(C)c(=O)n6C5CCC(=O)NC5=O)cc4)CC3)c2)nn2c(C(=O)NC3CC3)cnc12 (centres unmarked)")
"> 100 nM"
>>> reported("CNc1cc(-c2ccc(-c3ccc(CN4CCN(c5ccc(-c6ccc7c(c6)n(C)c(=O)n7C6CCC(=O)NC6=O)cc5)CC4)cc3)c3nccn23)nn2c(C(=O)N[C@@H]3C[C@@H]3C)cnc12 (some centres unmarked)")
"> 100 nM"
>>> reported("CNC(=O)c1cnc(Nc2cc(C(=O)NCCCCc3ccc4c(c3)n(C)c(=O)n4C3CCC(=O)NC3=O)ccn2)cc1Nc1cccc(-c2ncc(F)cn2)c1OC (centres unmarked)")
"< 1 nM"
>>> reported("CNC(=O)c1cnc(Nc2ccc(CN3CCC4(CC3)CC(Cc3ccc5c(c3)n(C)c(=O)n5C3CCC(=O)NC3=O)C4)cn2)cc1Nc1cccc(-c2ncc(F)cn2)c1OC (centres unmarked)")
"< 1 nM"

====

# DC50 listing for each entry below
target under test: TYK2 (Homo sapiens)
test name: TYK2 degradation MSD assay in EBV-B cells
Type: cell-based
Set-up: endogenous in cells; host or cells: EBV-B cells
test conditions: 4 to 24 hours incubation, read-out: TYK2 MSD DC50 rating in EBV-B
assay readout: DC50

>>> reported("CNc1cc(Nc2cccn(-c3ccc(C(=O)N4CCC(c5ncc(-c6ccc7c(c6)n(C)c(=O)n7C6CCC(=O)NC6=O)cn5)CC4)cn3)c2=O)nn2c(C(=O)N[C@@H]3C[C@@H]3F)cnc12 (some centres unmarked) [Example K385]")
"< 1 nM"
>>> reported("CNc1cc(Nc2cccn(-c3cccc(C(=O)NCCOCCOCCOCCOCCc4cccc5c4n(C)c(=O)n5C4CCC(=O)NC4=O)c3)c2=O)nn2c(C(=O)N[C@@H]3C[C@@H]3F)cnc12 (some centres unmarked) [Example K240]")
"> 100 nM"
>>> reported("CNc1cc(-c2ccc(C3CCN(CC4CCN(c5ccc(-c6ccc7c(c6)n(C)c(=O)n7C6CCC(=O)NC6=O)cc5)CC4)CC3)cc2)nn2c(C(=O)N[C@@H]3C[C@@H]3F)cnc12 (some centres unmarked) [Example K530]")
"> 100 nM"
>>> reported("CNC(=O)c1cnc(NC(=O)CCCCCCCc2ccc3c(c2)n(C)c(=O)n3C2CCC(=O)NC2=O)cc1Nc1cccc(-c2ncc(F)cn2)c1OC (centres unmarked) [Example K104]")
"> 100 nM"
>>> reported("CNc1cc(Nc2cccn(-c3ccc(C(=O)NCCOCCOCCc4cccc5c4n(C)c(=O)n5C4CCC(=O)NC4=O)cn3)c2=O)nn2c(C(=O)N[C@@H]3C[C@@H]3F)cnc12 (some centres unmarked) [Example K216]")
"> 100 nM"
